Every entry's value here was drawn from ChEMBL document CHEMBL3769304.

systemUnderTest: N-acylethanolamine-hydrolyzing acid amidase (Homo sapiens, UniProt Q02083)
Sequence (Q02083 29-125 limits assumed): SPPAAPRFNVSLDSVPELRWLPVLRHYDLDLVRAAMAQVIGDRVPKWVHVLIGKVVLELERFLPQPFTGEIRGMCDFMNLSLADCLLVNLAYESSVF
Sequence (Q02083 126-359 limits assumed): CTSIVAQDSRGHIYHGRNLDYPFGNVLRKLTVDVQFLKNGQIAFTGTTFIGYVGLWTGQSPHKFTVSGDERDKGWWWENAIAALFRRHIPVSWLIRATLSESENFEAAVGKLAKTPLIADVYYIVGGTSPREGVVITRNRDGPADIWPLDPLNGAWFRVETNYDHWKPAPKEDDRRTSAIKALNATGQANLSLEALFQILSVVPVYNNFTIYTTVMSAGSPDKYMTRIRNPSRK
protocolText: Inhibition of human NAAA expressed in HEK293 cells preincubated for 10 mins followed by N-(4-methyl-2-oxo-chromen-7-yl)-hexadecanamide substrate addition for 50 mins by microplate reader analysis
parameter: pIC50
Convention used: pIC50 is expressed as -log10 of the molar concentration.

**Query** Recorded pIC50 of CCCCCCCCC(=O)N[C@H]1CNC1=O , please.
**Result** 6.47

----------
Items are presented alongside their recorded half-life.
protocolText: Half life in mouse liver microsomes preincubated for 15 mins followed by NADPH addition measured after 1 hr by LC/MS-MS analysis
Assay type: ADME
All answers are understood in min, so give the number only.

O=C(N[C@H]1CNC1=O)OCCCCC1CCC(F)(F)CC1 ... 34

**Query** Recorded half-life of O=C(N[C@H]1CNC1=O)OCc1ccc2c(c1)OC(F)(F)O2 , please.
**Result** 30

**Query** Recorded half-life of O=C(N[C@H]1CNC1=O)OCc1ccc(C2CCCCC2)cc1 , please.
**Result** 5

**Query** Recorded half-life of CCCOc1ccc(COC(=O)N[C@H]2CNC2=O)cc1 , please.
**Result** 11

----------
systemUnderTest: N-acylethanolamine-hydrolyzing acid amidase (Homo sapiens, UniProt Q02083)
protocolText: Inhibition of human NAAA expressed in HEK293 cells preincubated for 10 mins followed by N-(4-methyl-2-oxo-chromen-7-yl)-hexadecanamide substrate addition for 50 mins by fluorescence assay
Format: cell-based
Could you mark each record y if its IC50 falls strictly under 100 nM, and n if it equals or exceeds it?

Take a look at these entries with their results.
O=C(N[C@H]1CNC1=O)OCCCCc1ccc(C(F)(F)F)cc1 ... y
O=C(N[C@H]1CNC1=O)OCc1ccc2c(c1)CCC2 ... n
COc1ccc(CCCCOC(=O)N[C@H]2CNC2=O)cc1 ... n
O=C(N[C@H]1CNC1=O)OCCCOC1CCCCC1 ... n
O=C(N[C@H]1CNC1=O)OCCCC1CCCCC1 ... y

**Query** Dear colleague, could you confirm whether IC50 of Cc1ccc(COC(=O)N[C@H]2CNC2=O)cc1 falls below 100 nM? Thanks.
**Result** n

**Query** Dear colleague, could you confirm whether IC50 of O=C(N[C@H]1CNC1=O)OCCCCc1ccccc1 falls below 100 nM? Thanks.
**Result** n

----------
Items are presented alongside their recorded half-life.
protocolText: Half life in mouse plasma after 2 hrs by LC/MS-MS analysis
Type: ADME, cell-free
All answers are understood in min, so give the number only.

// worked examples, half-life included
CCCOc1ccc(COC(=O)N[C@H]2CNC2=O)cc1 ... 31
O=C(N[C@H]1CNC1=O)OCCCCC1CCC(F)(F)CC1 ... 33
CCCCc1ccc(COC(=O)N[C@H]2CNC2=O)cc1 ... 29

Consider the record given below.
**Query** Recorded half-life of O=C(N[C@H]1CNC1=O)OCc1ccc(C2CCCCC2)cc1 , please.
**Result** 57

----------
protocolText: Half life in rat plasma after 2 hrs by LC/MS-MS analysis
Assay type: ADME, cell-free
Items are presented alongside their recorded half-life.

O=C(N[C@H]1CNC1=O)OCc1ccc2c(c1)OC(F)(F)O2 ... > 2 h

**Query** Recorded half-life of CCCCc1ccc(COC(=O)N[C@H]2CNC2=O)cc1 , please.
**Result** > 2 h

**Query** Recorded half-life of CCCOc1ccc(COC(=O)N[C@H]2CNC2=O)cc1 , please.
**Result** > 2 h
